The following molecules were reported with pIC50 values on Lysine-specific histone demethylase 1A (Homo sapiens, UniProt O60341) in different studies.
pIC50: −log10 of the molar value.

>  <CHEM_SMILES>
COc1ccc(-c2c(-c3ccc(C#N)c(F)c3)nc(N3CC(CN)C3)n(C)c2=O)cc1

>  <SYSTEM>
Lysine-specific histone demethylase 1A (Homo sapiens, UniProt O60341)

>  <pIC50>
> 7.00

$$$$
>  <CHEM_SMILES>
N[C@H]1C[C@H](c2nc(C3(CN[C@@H]4C[C@H]4c4ccccc4)CC3)no2)C1

>  <SYSTEM>
Lysine-specific histone demethylase 1A (Homo sapiens, UniProt O60341)

>  <pIC50>
≥ 7.30

$$$$
>  <CHEM_SMILES>
COc1ccc(-c2c(-c3ccc(C#N)c(F)c3)cc(N3CCC(N)CC3)c(=O)n2C)cc1F

>  <SYSTEM>
Lysine-specific histone demethylase 1A (Homo sapiens, UniProt O60341)

>  <pIC50>
> 7.00

$$$$
>  <CHEM_SMILES>
CN1CCN(c2ccc(-n3nc(NC[C@H]4CCC[C@H](N)C4)cc3-c3ccc(C#N)c(F)c3)cc2)CC1=O

>  <SYSTEM>
Lysine-specific histone demethylase 1A (Homo sapiens, UniProt O60341)

>  <pIC50>
5.00 to 6.00

$$$$
>  <CHEM_SMILES>
CCOc1ccc(-c2c(-c3ccc(C#N)c(F)c3)nc(N3CCC(N)CC3)n(C)c2=O)cn1

>  <SYSTEM>
Lysine-specific histone demethylase 1A (Homo sapiens, UniProt O60341)

>  <pIC50>
> 7.00

$$$$
>  <CHEM_SMILES>
Cc1ccc(-c2nc3ccn(C[C@H]4CCNC4)c3cc2-c2ccc(C#N)cc2)cc1

>  <SYSTEM>
Lysine-specific histone demethylase 1A (Homo sapiens, UniProt O60341)

>  <pIC50>
> 7.00

$$$$

Switching to the query record.
Ask: Write down measured pIC50 (Lysine-specific histone demethylase 1A (Homo sapiens, UniProt O60341)) for this molecule. N#Cc1ccc(-c2nc(N3CC[C@@H]4CNC[C@@H]4CC3)sc2-c2cnn(CC3CC3)c2)cc1
Reply: ≥ 7.00

###

pIC50: −log10 of the molar value.
The following compounds were reported with pIC50 values on Lysine-specific histone demethylase 1A (Homo sapiens, UniProt O60341) in different studies.

Take a look at these entries with their results.
>  <COMPOUND>
Cc1ccc(-c2c(-c3ccc(C#N)cc3)cc(N3CCC(N)CC3)c(=O)n2C)cc1

>  <RESULT>
> 7.00

$$$$
>  <COMPOUND>
COc1ccc(-c2c(-c3ccc(C#N)c(F)c3)nc(N3CCC(C)(N)CC3)n(C)c2=O)cc1F

>  <RESULT>
> 7.00

$$$$
>  <COMPOUND>
NC(=O)c1ccc(-c2nc(C3(CN[C@H]4CC4c4ccccc4)CC3)no2)cc1 (stereo partly shown)

>  <RESULT>
≥ 7.30

$$$$

Ask: Write down measured pIC50 (Lysine-specific histone demethylase 1A (Homo sapiens, UniProt O60341)) for this compound. Cn1ncc2cc(-n3cc(C(=O)N4CCC[C@@H](N)C4)nc3-c3ccc(C#N)c(F)c3)ccc21
Reply: > 7.00

###

The following compounds were reported with IC50 values on Lysine-specific histone demethylase 1A (Homo sapiens, UniProt O60341) in different studies.

Take a look at these entries with their results.
>  <COMPOUND>
CNC1CCN(c2nc(-c3ccc(C#N)cc3)c(-c3ccc(C)cc3)n(C)c2=O)CC1

>  <QUANTITY_NAME>
IC50

>  <RESULT>
< 100 nM

$$$$
>  <COMPOUND>
Clc1ccc(-c2noc(C3(CN[C@H]4CC4c4ccccc4)CC3)n2)cc1 (stereo partly drawn)

>  <QUANTITY_NAME>
IC50

>  <RESULT>
≤ 50 nM

$$$$

Ask: Write down measured IC50 (Lysine-specific histone demethylase 1A (Homo sapiens, UniProt O60341)) for this compound. CN(C)c1ccc(-c2c(-c3ccc(C#N)c(F)c3)cc(N3CCC(N)CC3)c(=O)n2C)cn1
Reply: < 100 nM

Ask: Write down measured IC50 (Lysine-specific histone demethylase 1A (Homo sapiens, UniProt O60341)) for this compound. Cn1c(N2CCC(N)CC2)nc(-c2ccc(C#N)c(F)c2)c(-c2ccc(Cl)cc2)c1=O
Reply: < 100 nM

Ask: Write down measured IC50 (Lysine-specific histone demethylase 1A (Homo sapiens, UniProt O60341)) for this compound. COc1ccc(-n2ncc(C(=O)N3CCCC(N)C3)c2-c2ccc(C#N)cc2)cc1 (stereo not drawn)
Reply: > 10000 nM
